Assay: Inhibition of human mitochondrial HSP60 expressed in Escherichia coli Rosetta 2 (DE3) cells/human mitochondrial HSP10 expressed in Escherichia coli Rosetta 2 (DE3) pLysS cells assessed as inhibition of […]-mediated dMDH refolding by reporter analysis
Type: mitochondria, Mitochondria
Hi there, I'd appreciate the recorded pIC50 for every entry that follows.
Answers are plain numbers, as −log10 of the molar value.

As a guide, the following entries are already answered.
{"Mol smiles": "O=C(/C=C/c1ccccc1)c1ccc(NC(=O)c2ccccc2)cc1", "pIC50": 5.23}
{"Mol smiles": "O=C(/C=C/c1cccc([N+](=O)[O-])c1)c1ccc(NC(=O)c2ccco2)cc1", "pIC50": 5.60}
{"Mol smiles": "CC(=O)Nc1ccc(C(=O)/C=C/c2ccccc2)cc1", "pIC50": 4.85}

Please turn your attention to the following entry.
Need pIC50 of COc1ccc(C(=O)/C=C/c2ccccc2)cc1 , thanks.
4.80
